- Assay comment: Fecal recovery
- Format: in vivo, Sprague Dawley rats
- Measurement conditions: male, Sprague-Dawley, faeces; rat, oral gavage 1 mg/kg, collection time 48 h
For each entry below, report its dose excreted value.

Record excerpt, results attached:
>>> recorded_value("CN(C)[C@H]1Cc2c(Cl)cc(Cl)cc2[C@@H]1Oc1ccc(S(=O)(=O)NCCOCCOCCNC(=O)NCCCCNC(=O)NCCOCCOCCNS(=O)(=O)c2ccc(O[C@H]3c4cc(Cl)cc(Cl)c4C[C@@H]3N(C)C)cc2)cc1 [Example 1]")
"87.7%"
>>> recorded_value("CN(C)[C@H]1Cc2c(Cl)cc(Cl)cc2[C@@H]1Oc1ccc(S(=O)(=O)NCCOCCOCCNC(=O)CCC(C)(N)CCC(=O)NCCOCCOCCNS(=O)(=O)c2ccc(O[C@H]3c4cc(Cl)cc(Cl)c4C[C@@H]3N(C)C)cc2)cc1 [Example 11]")
"82.1%"
>>> recorded_value("N[C@@H]1CCCN([C@H]2Cc3c(Cl)cc(Cl)cc3[C@@H]2Oc2ccc(S(=O)(=O)NCCOCCOCCNC(=O)NCCCCNC(=O)NCCOCCOCCNS(=O)(=O)c3ccc(O[C@H]4c5cc(Cl)cc(Cl)c5C[C@@H]4N4CCC[C@@H](N)C4)cc3)cc2)C1 [Example 3]")
"69.2%"
>>> recorded_value("O=C(NCCCCNC(=O)NCCOCCOCCNS(=O)(=O)c1ccc(O[C@H]2c3cc(Cl)cc(Cl)c3C[C@@H]2N2CC[C@@H](O)C2)cc1)NCCOCCOCCNS(=O)(=O)c1ccc(O[C@H]2c3cc(Cl)cc(Cl)c3C[C@@H]2N2CC[C@@H](O)C2)cc1 [Example 30]")
"66.8%"

Continue with the next compound.
Param item = CN(C)[C@H]1Cc2c(Cl)cc(Cl)cc2[C@@H]1Oc1ccc(S(=O)(=O)NCCOCCOCCNC(=O)COCC(=O)NCCOCCOCCNS(=O)(=O)c2ccc(O[C@H]3c4cc(Cl)cc(Cl)c4C[C@@H]3N(C)C)cc2)cc1 [Example 9] ; retrieve measured dose excreted.
65.7%

###

- System: absorption of sodium from the intestinal lumen
- Assay comment: Inhibition of intestinal sodium absorption: rat urinary sodium and fecal form 16 h post-dose
- Assay type: in vivo, Sprague-Dawley rats
- Measurement conditions: oral gavage 10 mg/kg, urine 16 h post-dose, read-out: uNa Result, uNa (% of vehicle)
For each entry below, report its response vs control in vivo at 10 mg/kg value.

Record excerpt, results attached:
>>> recorded_value("CN(C)[C@H]1Cc2ccc(F)cc2[C@@H]1Oc1ccc(S(=O)(=O)NCCOCCOCCNC(=O)NCCCCNC(=O)NCCOCCOCCNS(=O)(=O)c2ccc(O[C@H]3c4cc(F)ccc4C[C@@H]3N(C)C)cc2)cc1")
"> 75%"
>>> recorded_value("O=C(NCCOCCOCCNS(=O)(=O)c1ccc(O[C@H]2c3ccccc3C[C@@H]2N2CCCCC2)cc1)c1ccc(C(=O)NCCOCCOCCNS(=O)(=O)c2ccc(O[C@H]3c4ccccc4C[C@@H]3N3CCCCC3)cc2)cc1")
"35 to 75%"
>>> recorded_value("CC(C)(C(=O)NCCOCCOCCOCCNS(=O)(=O)c1ccc(O[C@H]2c3ccccc3C[C@@H]2N2CCCCC2)cc1)C(=O)NCCOCCOCCOCCNS(=O)(=O)c1ccc(O[C@H]2c3ccccc3C[C@@H]2N2CCCCC2)cc1")
"35 to 75%"
>>> recorded_value("O=C(NCCCCNC(=O)NCCOCCOCCNS(=O)(=O)c1ccc(O[C@H]2c3cc(Cl)cc(F)c3C[C@@H]2N2CCCCC2)cc1)NCCOCCOCCNS(=O)(=O)c1ccc(O[C@H]2c3cc(Cl)cc(F)c3C[C@@H]2N2CCCCC2)cc1")
"> 75%"
>>> recorded_value("N[C@@H]1CCCN([C@H]2Cc3c(Cl)cc(Cl)cc3[C@@H]2Oc2ccc(S(=O)(=O)NCCOCCOCCNC(=O)NCCCCNC(=O)NCCOCCOCCNS(=O)(=O)c3ccc(O[C@H]4c5cc(Cl)cc(Cl)c5C[C@@H]4N4CCC[C@@H](N)C4)cc3)cc2)C1")
"35 to 75%"

Provide response vs control in vivo at 10 mg/kg values for the following items, in order.
1. O=C(NCCCCNC(=O)NCCOCCOCCNS(=O)(=O)c1ccc(O[C@H]2c3cc(Cl)cc(F)c3C[C@@H]2N2CC[C@@H](O)C2)cc1)NCCOCCOCCNS(=O)(=O)c1ccc(O[C@H]2c3cc(Cl)cc(F)c3C[C@@H]2N2CC[C@@H](O)C2)cc1
2. O=C(NCCOCCOCCNS(=O)(=O)c1ccc(O[C@H]2c3ccccc3C[C@@H]2N2CCCCC2)cc1)[C@H](O)[C@@H](O)C(=O)NCCOCCOCCNS(=O)(=O)c1ccc(O[C@H]2c3ccccc3C[C@@H]2N2CCCCC2)cc1
3. CN(C)[C@H]1Cc2c(Cl)cc(Cl)cc2[C@@H]1Oc1ccc(S(=O)(=O)N(C)CCOCCOCCNC(=O)NCCCCNC(=O)NCCOCCOCCN(C)S(=O)(=O)c2ccc(O[C@H]3c4cc(Cl)cc(Cl)c4C[C@@H]3N(C)C)cc2)cc1
4. O=C(NCCCCNC(=O)NCCOCCOCCOCCNS(=O)(=O)c1ccc(O[C@H]2c3ccccc3C[C@@H]2N2CCCCC2)cc1)NCCOCCOCCOCCNS(=O)(=O)c1ccc(O[C@H]2c3ccccc3C[C@@H]2N2CCCCC2)cc1
5. CN(C)[C@H]1Cc2ccccc2[C@@H]1Oc1ccc(S(=O)(=O)NCCOCCOCCNC(=O)NCCCCNC(=O)NCCOCCOCCNS(=O)(=O)c2ccc(O[C@H]3c4ccccc4C[C@@H]3N(C)C)cc2)cc1
6. O=C(NCCCCNC(=O)NCCOCCOCCNS(=O)(=O)c1ccc(O[C@H]2c3cc(Cl)cc(Cl)c3C[C@@H]2N2CCCCC2)cc1)NCCOCCOCCNS(=O)(=O)c1ccc(O[C@H]2c3cc(Cl)cc(Cl)c3C[C@@H]2N2CCCCC2)cc1
7. O=C(NCCOCCOCCOCCNS(=O)(=O)c1ccc(O[C@H]2c3ccccc3C[C@@H]2N2CCCCC2)cc1)c1ccc(C(=O)NCCOCCOCCOCCNS(=O)(=O)c2ccc(O[C@H]3c4ccccc4C[C@@H]3N3CCCCC3)cc2)cc1
8. CN(C)[C@H]1Cc2c(Cl)cc(Cl)cc2[C@@H]1Oc1ccc(S(=O)(=O)NCCOCCOCCNC(=O)C(C)(C)C(=O)NCCOCCOCCNS(=O)(=O)c2ccc(O[C@H]3c4cc(Cl)cc(Cl)c4C[C@@H]3N(C)C)cc2)cc1

1. > 75%
2. > 75%
3. 35 to 75%
4. < 35%
5. 35 to 75%
6. 35 to 75%
7. > 75%
8. 35 to 75%

Provide response vs control in vivo at 10 mg/kg values for the following items, in order.
1. O=C(NCCOCCOCCNS(=O)(=O)c1ccc(O[C@H]2c3ccccc3C[C@@H]2N2CCCCC2)cc1)c1cccc(C(=O)NCCOCCOCCNS(=O)(=O)c2ccc(O[C@H]3c4ccccc4C[C@@H]3N3CCCCC3)cc2)c1
2. O=C(NCCCCNC(=O)NCCOCCOCCNS(=O)(=O)c1ccc(O[C@H]2c3ccccc3C[C@@H]2N2CCCC2)cc1)NCCOCCOCCNS(=O)(=O)c1ccc(O[C@H]2c3ccccc3C[C@@H]2N2CCCC2)cc1
3. CN(C)[C@H]1Cc2c(F)cc(Cl)cc2[C@@H]1Oc1ccc(S(=O)(=O)NCCOCCOCCNC(=O)NCCCCNC(=O)NCCOCCOCCNS(=O)(=O)c2ccc(O[C@H]3c4cc(Cl)cc(F)c4C[C@@H]3N(C)C)cc2)cc1

35 to 75%
35 to 75%
> 75%

Param item = `O=C(NCCCCNC(=O)NCCOCCOCCNS(=O)(=O)c1ccc(O[C@H]2c3cc(F)ccc3C[C@@H]2N2CCCCC2)cc1)NCCOCCOCCNS(=O)(=O)c1ccc(O[C@H]2c3cc(F)ccc3C[C@@H]2N2CCCCC2)cc1` ; retrieve measured response vs control in vivo at 10 mg/kg.
> 75%
